- TEST_NAME: Liver microsome stability
- CONDITION_NOTES: mouse, pooled liver microsomes
METRIC: half-life (h)
Please respond with the number in h and leave the unit unwritten.

Qu. Entry CC1(C)Cn2nc(-c3ccc4cc(OC5CC5)ccc4c3)c(C(N)=O)c2NC1O (stereo not shown) has what half-life?
Ans. 1.97

---

- Test system: panel of 71 common liability targets
- TEST_NAME: Cerep panel of 71 common liability targets
- Format: binding
- CONDITION_NOTES: read-out: IC50s, all Cerep targets except AT2
pIC50: −log10 of the molar value.
METRIC: pIC50

Qu. Reported pIC50, compound CC1(C)Cn2nc(-c3ccc4cc(OC5CC5)ccc4c3)c(C(N)=O)c2NC1O (stereo not shown) : ____
Ans. < 5.00

---

- TEST_NAME: Mouse PK, Balb/c
- CONDITION_NOTES: Balb/c, mouse, plasma, po, 30 mg/kg
METRIC: Cmax (µM)
Give a bare numeral; the unit µM is implied.

Qu. Given the entry CC1(C)Cn2nc(-c3ccc4cc(OC5CC5)ccc4c3)c(C(N)=O)c2NC1O (stereo not shown) , report its measured Cmax.
Ans. 13.1

---

- Test system: NLuc C. parvum (Calibr)
- TEST_NAME: Calibr panel, UA Nanoluc C. parvum count
- Format: cell-based
- CONDITION_NOTES: Cryptosporidium parvum; read-out: EC50
METRIC: EC50 (µM)
Dear colleague, please return just the value in µM, with no unit written.

Qu. Entry CC1(C)Cn2nc(-c3ccc4cc(OC5CC5)ccc4c3)c(C(N)=O)c2NC1O (stereo not shown) has what EC50?
Ans. 0.34

---

- TEST_NAME: Cytotoxicity
- CONDITION_NOTES: human, HEPG2 hepatocyte cell line
METRIC: CC50 (µM)
State the answer as a number, implicitly in µM.

Qu. Which CC50 is reported for this compound? CC1(C)Cn2nc(-c3ccc4cc(OC5CC5)ccc4c3)c(C(N)=O)c2NC1O (stereo not shown) [M2]
Ans. 13.4

---

- TESTED_ON: UniProt:P33261
- Sequence (P33261 whole entry): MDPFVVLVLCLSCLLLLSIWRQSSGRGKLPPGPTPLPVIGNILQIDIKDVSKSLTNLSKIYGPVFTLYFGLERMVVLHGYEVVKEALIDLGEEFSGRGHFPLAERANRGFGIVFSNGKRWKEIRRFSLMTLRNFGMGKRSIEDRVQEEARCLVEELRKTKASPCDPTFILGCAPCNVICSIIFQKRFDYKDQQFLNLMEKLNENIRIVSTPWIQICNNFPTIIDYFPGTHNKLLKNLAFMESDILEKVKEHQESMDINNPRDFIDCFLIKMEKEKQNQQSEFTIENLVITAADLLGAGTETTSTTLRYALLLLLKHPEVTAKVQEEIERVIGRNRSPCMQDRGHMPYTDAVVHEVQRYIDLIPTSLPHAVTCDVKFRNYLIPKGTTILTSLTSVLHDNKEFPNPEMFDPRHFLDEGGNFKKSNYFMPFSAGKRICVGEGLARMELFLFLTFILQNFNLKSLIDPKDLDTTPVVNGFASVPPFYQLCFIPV
- TEST_NAME: in vitro
- CONDITION_NOTES: recombinant CYP2C19 supersomes
METRIC: CLint scaled

Qu. Query CLint scaled on UniProt:P33261 for CC1(C)Cn2nc(-c3ccc4cc(OC5CC5)ccc4c3)c(C(N)=O)c2NC1O (stereo not shown)
Ans. < 0.117 mL/min/kg

---

- TESTED_ON: AT2 (Homo sapiens)
- Sequence (P50052 whole entry): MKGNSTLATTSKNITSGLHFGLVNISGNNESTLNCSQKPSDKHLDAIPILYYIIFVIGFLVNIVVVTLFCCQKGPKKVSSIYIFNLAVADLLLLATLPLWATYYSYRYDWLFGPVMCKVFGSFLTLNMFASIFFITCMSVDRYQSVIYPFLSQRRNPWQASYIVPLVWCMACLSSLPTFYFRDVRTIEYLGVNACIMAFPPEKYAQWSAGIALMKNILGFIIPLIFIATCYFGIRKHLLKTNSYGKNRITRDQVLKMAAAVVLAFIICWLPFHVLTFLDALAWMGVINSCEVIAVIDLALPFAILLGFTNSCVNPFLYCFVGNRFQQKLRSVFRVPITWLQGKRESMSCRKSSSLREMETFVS
METRIC: pIC50
Scale explanation: pIC50 corresponds to minus log10 of a concentration expressed in moles per litre.

Qu. What does the data say about its pIC50? Entry: CC1(C)Cn2nc(-c3ccc4cc(OC5CC5)ccc4c3)c(C(N)=O)c2NC1O (stereo not shown)
Ans. 5.34

---

- TEST_NAME: Liver microsome stability
- CONDITION_NOTES: rat, pooled liver microsomes
METRIC: CLint scaled

Qu. Need CLint scaled, item CC1(C)Cn2nc(-c3ccc4cc(OC5CC5)ccc4c3)c(C(N)=O)c2NC1O (stereo not shown) [M2]
Ans. < 41.7 mL/min/kg

---

- Test system: NLuc C. parvum (Calibr)
- TEST_NAME: Calibr panel, UA Nanoluc C. parvum count
- Type: cell-based
- CONDITION_NOTES: Cryptosporidium parvum, Replicate 1; read-out: UA Nanoluc C. parvum Count EC50
METRIC: pEC50
Please express pEC50 as -log10 of the molar concentration.

Qu. Which pEC50 value is on record for CC(C)/N=c1\cc2n(-c3ccc(Cl)cc3)c3ccccc3nc-2cc1Nc1ccc(Cl)cc1 [Clofazimine] ?
Ans. 7.63

Qu. Record request: pEC50 value, item COc1ccc(C[C@H](N)C(=O)N[C@H]2[C@@H](O)[C@H](n3cnc4c(N(C)C)ncnc43)O[C@@H]2CO)cc1 [Puromycin]
Ans. 6.47

Qu. Entry under review: CC1(C)Cn2nc(-c3ccc4cc(OC5CC5)ccc4c3)c(C(N)=O)c2NC1O (centres unmarked) [M2] . Reported pEC50?
Ans. 6.33

Qu. Any idea what pEC50 was measured for O=c1[nH]c(=O)n([C@H]2C[C@H](O)[C@@H](CO)O2)cc1F [5-fluoro-2'-deoxyuridine] ?
Ans. 7.37

---

- TEST_NAME: Liver microsome stability
- CONDITION_NOTES: dog, pooled liver microsomes
METRIC: microsomal CLint

Qu. Dear colleague, I am looking for the recorded microsomal CLint of the following compound: CC1(C)Cn2nc(-c3ccc4cc(OC5CC5)ccc4c3)c(C(N)=O)c2NC1O (stereo not shown)
Ans. < 23.1 µL/min/mg

---

- TEST_NAME: Hepatocyte stability
- CONDITION_NOTES: dog, primary hepatocytes
METRIC: half-life (h)
# value in h; strip the unit string

Qu. // returns reported half-life for input CC1(C)Cn2nc(-c3ccc4cc(OC5CC5)ccc4c3)c(C(N)=O)c2NC1O (stereo not shown)
Ans. 6.85

---

- Tested on: HEK293T
- TEST_NAME: 72H HEK293T Cytotoxicity
- Assay type: cell-based
METRIC: CC50 (µM)
All answers are understood in µM, so give the number only.

Qu. Need CC50 of `CCOc1ccc2cc(-c3nn(CC4CCN(C)CC4)c4ncnc(N)c34)ccc2c1` , thanks.
Ans. 22.2

---

- TESTED_ON: hERG (Homo sapiens, UniProt Q12809)
- Sequence (Q12809 whole entry): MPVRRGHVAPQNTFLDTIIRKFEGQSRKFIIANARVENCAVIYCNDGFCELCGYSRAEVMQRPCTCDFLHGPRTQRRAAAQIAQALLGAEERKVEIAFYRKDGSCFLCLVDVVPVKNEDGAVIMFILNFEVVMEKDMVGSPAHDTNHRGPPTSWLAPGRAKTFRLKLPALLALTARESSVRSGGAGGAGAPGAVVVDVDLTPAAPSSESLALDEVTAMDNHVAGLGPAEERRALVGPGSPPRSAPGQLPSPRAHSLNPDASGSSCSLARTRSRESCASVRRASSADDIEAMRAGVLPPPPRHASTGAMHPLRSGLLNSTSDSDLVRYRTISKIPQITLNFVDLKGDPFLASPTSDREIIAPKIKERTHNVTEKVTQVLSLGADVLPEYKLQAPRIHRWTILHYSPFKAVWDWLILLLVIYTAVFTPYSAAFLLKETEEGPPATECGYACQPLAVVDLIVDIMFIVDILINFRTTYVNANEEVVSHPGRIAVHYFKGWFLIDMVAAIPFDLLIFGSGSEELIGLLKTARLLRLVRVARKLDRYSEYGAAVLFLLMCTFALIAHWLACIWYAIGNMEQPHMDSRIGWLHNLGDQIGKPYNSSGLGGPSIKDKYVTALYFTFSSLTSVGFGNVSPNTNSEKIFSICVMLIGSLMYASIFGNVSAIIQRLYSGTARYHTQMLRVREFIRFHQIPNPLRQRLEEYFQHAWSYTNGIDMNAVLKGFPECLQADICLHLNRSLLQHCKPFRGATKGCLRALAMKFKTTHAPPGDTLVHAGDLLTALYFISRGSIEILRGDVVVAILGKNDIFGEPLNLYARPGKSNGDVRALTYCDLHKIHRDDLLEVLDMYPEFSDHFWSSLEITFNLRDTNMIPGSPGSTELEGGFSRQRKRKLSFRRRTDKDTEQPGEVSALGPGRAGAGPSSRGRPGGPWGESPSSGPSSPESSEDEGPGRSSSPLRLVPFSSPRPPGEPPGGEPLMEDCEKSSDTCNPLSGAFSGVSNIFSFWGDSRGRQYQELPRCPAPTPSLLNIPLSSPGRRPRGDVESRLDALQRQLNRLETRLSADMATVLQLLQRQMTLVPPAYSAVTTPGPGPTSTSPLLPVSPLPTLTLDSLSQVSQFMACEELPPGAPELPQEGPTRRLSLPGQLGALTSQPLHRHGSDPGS
METRIC: IC50 (µM)
Unit µM implied. Number only.

Qu. Form field - read-out: IC50; system: hERG (Homo sapiens, UniProt Q12809); submitted item: CC1(C)Cn2nc(-c3ccc4cc(OC5CC5)ccc4c3)c(C(N)=O)c2NC1O (stereo not shown)
Ans. 6.2

---

- TEST_NAME: Mouse PK, Balb/c
- CONDITION_NOTES: Balb/c, mouse, plasma, iv, 1 mg/kg
METRIC: clearance

Qu. Returns the measured clearance for the input molecule. Input: CC1(C)Cn2nc(-c3ccc4cc(OC5CC5)ccc4c3)c(C(N)=O)c2NC1O (stereo not shown)
Ans. 6.2 mL/min/kg

---

- TEST_NAME: Hepatocyte stability
- CONDITION_NOTES: monkey, primary hepatocytes
METRIC: half-life
Answer by giving the amount and then stating its unit.

Qu. Tell me the measured half-life of CC1(C)Cn2nc(-c3ccc4cc(OC5CC5)ccc4c3)c(C(N)=O)c2NC1O (stereo not shown) , please.
Ans. 6.48 h

---

- System: HCT-8 cells
- TEST_NAME: HCT-8 host cell count (Calibr)
- CONDITION_NOTES: read-out: HCT-8 Cell Count CC50; host cells infected with Sterling oocysts
METRIC: CC50

Qu. // CC50 lookup, key: `CCOc1ccc2cc(-c3nn(CC4CCN(C)CC4)c4ncnc(N)c34)ccc2c1`
Ans. > 25 µM

---

- TEST_NAME: Mouse PK, Balb/c
- CONDITION_NOTES: Balb/c, mouse, plasma, iv, 1 mg/kg
METRIC: Vd (L/kg)
Numeric answer only, unit L/kg assumed.

Qu. For CC1(C)Cn2nc(-c3ccc4cc(OC5CC5)ccc4c3)c(C(N)=O)c2NC1O (stereo not shown) [M2] , what is its reported Vd?
Ans. 0.9

---

- TEST_NAME: Cytotoxicity
- CONDITION_NOTES: human, CRL-8155 B-lymphocyte cell line
METRIC: CC50 (µM)
API: value field is a number in µM; no unit string.

Qu. Please look up its CC50: CC1(C)Cn2nc(-c3ccc4cc(OC5CC5)ccc4c3)c(C(N)=O)c2NC1O (stereo not shown) [M2]
Ans. 15.6

---

- TEST_NAME: Hepatocyte stability
- CONDITION_NOTES: mouse, primary hepatocytes
METRIC: half-life (h)
Report as a plain number; the unit h is understood.

Qu. Recorded half-life for CC1(C)Cn2nc(-c3ccc4cc(OC5CC5)ccc4c3)c(C(N)=O)c2NC1O (stereo not shown) [M2] , please?
Ans. 4.37

---

- TEST_NAME: Liver microsome stability
- CONDITION_NOTES: monkey, pooled liver microsomes
METRIC: half-life
State the result as a value with its unit after it.

Qu. Item CC1(C)Cn2nc(-c3ccc4cc(OC5CC5)ccc4c3)c(C(N)=O)c2NC1O (stereo not shown) [M2] has what recorded half-life?
Ans. 57 min

---

- Tested on: C. parvum Bunch Grass Farms isolate
- TEST_NAME: Calibr high-content imaging Cryptosporidium panel
- Format: cell-based, Cryptosporidium parvum
- CONDITION_NOTES: Cryptosporidium parvum; Calibr Crypto Panel 2; read-out: Bunch Grass Farm C. parvum Spot Count EC50
METRIC: EC50 (µM)
Field: numeric (µM). Do not append units.

Qu. Request: EC50, test system C. parvum Bunch Grass Farms isolate, entry CC(=O)Oc1ccccc1C(=O)Nc1ncc([N+](=O)[O-])s1 [Nitazoxanide]
Ans. 6.99

---

- TEST_NAME: Liver microsome stability
- CONDITION_NOTES: human, pooled liver microsomes
METRIC: half-life

Qu. Request the reported half-life associated with CC1(C)Cn2nc(-c3ccc4cc(OC5CC5)ccc4c3)c(C(N)=O)c2NC1O (stereo not shown) [M2]
Ans. > 2 h
